# test.target: pERK1/2 (Thr202/Tyr204), PANC-1 (KRAS G121D) (Homo sapiens, UniProt P01116, G12D)
# Construct: pERK1/2 HTRF read-out
# Sequence (P01116 1-188 isoform P01116-2 G12D): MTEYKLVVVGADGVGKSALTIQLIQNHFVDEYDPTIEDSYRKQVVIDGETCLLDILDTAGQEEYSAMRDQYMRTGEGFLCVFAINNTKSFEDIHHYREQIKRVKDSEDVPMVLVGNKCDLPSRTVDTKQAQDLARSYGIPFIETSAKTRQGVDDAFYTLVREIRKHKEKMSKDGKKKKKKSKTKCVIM
# measurement.notes: Assay of intracellular pERK1/2 (Thr202/Tyr204) phosphorylation in PANC-1 cells (KRAS G12D)
# Type: cell-based
# condition.context: pERK1/2, 2 days, read-out: PANC-1 (KRAS G12D) IC50
pIC50: −log10 of the molar value.
property.measured: pIC50

Enter reported pIC50 observed with pERK1/2 (Thr202/Tyr204), PANC-1 (KRAS G121D) (Homo sapiens, UniProt P01116, G12D) for CC(c1cccnc1N)N1c2nc(OC[C@@H]3C[C@@H](F)CN3C)nc3c(F)c(-c4cc(N)c(F)c(Cl)c4C(F)(F)F)nc(c23)OC[C@@H]1C (stereo partly shown)
8.40

Enter reported pIC50 observed with pERK1/2 (Thr202/Tyr204), PANC-1 (KRAS G121D) (Homo sapiens, UniProt P01116, G12D) for [2H]C1([2H])CC[C@@]2(COc3nc4c5c(nc(-c6cc(N)c(F)c(Cl)c6C(F)(F)F)c(F)c5n3)OCCN4C(C)c3cccnc3N)C[C@@H](F)CN12 (stereo partly shown)
8.70

Enter reported pIC50 observed with pERK1/2 (Thr202/Tyr204), PANC-1 (KRAS G121D) (Homo sapiens, UniProt P01116, G12D) for CC(c1cccnc1N)N1c2nc(OC[C@@]34CCCN3C[C@H](F)C4)nc3c(F)c(-c4c5c(cc6[nH]ncc46)CCC5=O)nc(c23)OC[C@@H]1C (single isomer, unassigned)
7.39

[a] CC(c1cccnc1N)N1c2nc(OC[C@@]34CCCN3C[C@H](F)C4)nc3c(F)c(-c4cc(O)cc5ccc(F)c(F)c45)nc(c23)OC[C@@H]1C (single isomer, unassigned) [Compound 275]
[b] C#Cc1c(F)ccc2cc(O)cc(-c3nc4c5c(nc(OC[C@@]67CCCN6C[C@H](F)C7)nc5c3F)N(C(C)c3cccnc3N)CCO4)c12 (stereo partly shown)
[c] CC(c1cccnc1N)N1c2nc(OC[C@@]34CCCN3C[C@H](F)C4)nc3c(F)c(-c4c(C(F)(F)F)ccc5[nH]ncc45)nc(c23)OC[C@@H]1C (stereo partly shown)
[d] [2H]C1([2H])CC[C@@]2(C([2H])([2H])Oc3nc4c5c(nc(-c6cc(N)cc(C)c6C(F)(F)F)c(F)c5n3)OCCN4C(C)c3cccnc3N)C[C@@H](F)CN12 (single isomer, unassigned) [Compound 116]
Thanks in advance: please rank these 4 entries by pIC50, highest to lowest. // respond by listing labels in the order requested
a, b, c, d
